# System: Plasmodium falciparum
# test_protocol: In vitro inhibition against Plasmodium falciparum
# Format: functional
# test_parameters: read-out: ED50 (the source's name)
endpoint_label: EC50
Put down the number, then write its unit next to it.

Answer with the recorded EC50 for the compound listed here: `CC1=C2[C@H]3OC(=O)[C@@H](C)[C@@H]3CC[C@@]2(C)C=CC1=O` 2800 nM

----------
# Tested on: Plasmodium falciparum
# test_protocol: Inhibitory activity against chloroquine-resistant Plasmodium falciparum
# Assay type: functional, organism-based
endpoint_label: pIC50
Quick note: pIC50 means taking -log10 of the concentration in moles per liter.

Read off the recorded pIC50 for CC(C)(C)OC(=O)OC1CCC2C[C@@H]3C=CC2(OO3)C1(C)C (stereo partly specified) 6.48
